biological target: Phosphatidylinositol 4,5-bisphosphate 3-kinase catalytic subunit delta isoform (Homo sapiens, UniProt O00329); assay: Displacement of TAMRA-PIP3 from PI3Kdelta GRP-1 pleckstrin homology domain (unknown origin) assessed as formation of 3,4,5-inositoltriphosphate after 30 mins by fluorescence polarization assay
Sequence (O00329 whole entry, the tested form may be a part, canonical isoform): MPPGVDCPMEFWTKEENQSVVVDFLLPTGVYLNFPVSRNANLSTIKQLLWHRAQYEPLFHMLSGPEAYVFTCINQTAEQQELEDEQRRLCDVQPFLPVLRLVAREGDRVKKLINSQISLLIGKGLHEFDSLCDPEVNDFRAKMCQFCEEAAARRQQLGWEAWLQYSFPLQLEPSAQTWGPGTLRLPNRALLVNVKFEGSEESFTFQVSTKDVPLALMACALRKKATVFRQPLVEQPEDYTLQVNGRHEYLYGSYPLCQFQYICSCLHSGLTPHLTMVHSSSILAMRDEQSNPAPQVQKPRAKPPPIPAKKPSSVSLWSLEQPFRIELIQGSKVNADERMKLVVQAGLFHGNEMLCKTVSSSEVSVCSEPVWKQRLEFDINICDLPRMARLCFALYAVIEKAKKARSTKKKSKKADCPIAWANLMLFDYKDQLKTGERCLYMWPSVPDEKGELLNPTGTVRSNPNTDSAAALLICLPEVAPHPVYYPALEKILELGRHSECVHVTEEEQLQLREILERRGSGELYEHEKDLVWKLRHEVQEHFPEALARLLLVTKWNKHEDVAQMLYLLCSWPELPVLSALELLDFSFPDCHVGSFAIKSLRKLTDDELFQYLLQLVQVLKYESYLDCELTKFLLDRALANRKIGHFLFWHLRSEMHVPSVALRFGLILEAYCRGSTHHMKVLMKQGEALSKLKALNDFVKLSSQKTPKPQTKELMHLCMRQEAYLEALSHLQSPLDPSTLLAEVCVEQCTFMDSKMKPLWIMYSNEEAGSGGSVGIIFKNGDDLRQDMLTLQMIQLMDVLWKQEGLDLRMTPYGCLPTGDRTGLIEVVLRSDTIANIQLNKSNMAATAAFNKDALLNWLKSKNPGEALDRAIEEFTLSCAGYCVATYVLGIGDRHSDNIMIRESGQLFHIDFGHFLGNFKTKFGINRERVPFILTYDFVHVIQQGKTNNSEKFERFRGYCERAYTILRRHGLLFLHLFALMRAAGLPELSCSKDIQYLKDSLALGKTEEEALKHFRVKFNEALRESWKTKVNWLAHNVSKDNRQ
pKi: −log10 of the molar value.
Recorded pKi for the following compounds

Some solved cases for reference:
CCNC(=O)Nc1ccc(-c2nc(N3C[C@@H]4C[C@H]3CO4)c3c(cnn3C)n2)cc1	5.29
CCNC(=O)Nc1ccc(-c2nc(N3CCOC[C@@H]3CC)c3c(ccn3C)n2)cc1	< 5.00
CCNC(=O)Nc1ccc(-c2nc(N3CCOC[C@@H]3CC)c3c(n2)c(C)nn3C)cc1	< 5.00
CCNC(=O)Nc1ccc(-c2nc(N3CCOC[C@@H]3C)c3c(ccn3C)n2)cc1	< 5.00
CCNC(=O)Nc1ccc(-c2nc(N3CCOC[C@@H]3C)c3c(n2)nc(C(C)(C)O)n3C)cc1	5.14
CCNC(=O)Nc1ccc(-c2nc(N3CCOC[C@@H]3C)c3c(ncn3C)n2)cc1	< 5.00

For "CCNC(=O)Nc1ccc(-c2nc(N3CCOC[C@@H]3C)c3c(cnn3C)n2)cc1" the compound record lists pKi as < 5.00

For "CCNC(=O)Nc1ccc(-c2nc(N3CCOC[C@@H]3C)c3ncn(CC)c3n2)cc1" the compound record lists pKi as 6.20

For "CCNC(=O)Nc1ccc(-c2nc(N3CCOC[C@@H]3C)c3c(ncn3CC)n2)cc1" the compound record lists pKi as < 5.00

---

biological target: Phosphatidylinositol 4,5-bisphosphate 3-kinase catalytic subunit alpha isoform (Homo sapiens, UniProt P42336); assay: Displacement of TAMRA-PIP3 from PI3Kalpha GRP-1 pleckstrin homology domain (unknown origin) assessed as formation of 3,4,5-inositoltriphosphate after 30 mins by fluorescence polarization assay
Sequence (P42336 whole entry, the tested form may be a part, canonical isoform): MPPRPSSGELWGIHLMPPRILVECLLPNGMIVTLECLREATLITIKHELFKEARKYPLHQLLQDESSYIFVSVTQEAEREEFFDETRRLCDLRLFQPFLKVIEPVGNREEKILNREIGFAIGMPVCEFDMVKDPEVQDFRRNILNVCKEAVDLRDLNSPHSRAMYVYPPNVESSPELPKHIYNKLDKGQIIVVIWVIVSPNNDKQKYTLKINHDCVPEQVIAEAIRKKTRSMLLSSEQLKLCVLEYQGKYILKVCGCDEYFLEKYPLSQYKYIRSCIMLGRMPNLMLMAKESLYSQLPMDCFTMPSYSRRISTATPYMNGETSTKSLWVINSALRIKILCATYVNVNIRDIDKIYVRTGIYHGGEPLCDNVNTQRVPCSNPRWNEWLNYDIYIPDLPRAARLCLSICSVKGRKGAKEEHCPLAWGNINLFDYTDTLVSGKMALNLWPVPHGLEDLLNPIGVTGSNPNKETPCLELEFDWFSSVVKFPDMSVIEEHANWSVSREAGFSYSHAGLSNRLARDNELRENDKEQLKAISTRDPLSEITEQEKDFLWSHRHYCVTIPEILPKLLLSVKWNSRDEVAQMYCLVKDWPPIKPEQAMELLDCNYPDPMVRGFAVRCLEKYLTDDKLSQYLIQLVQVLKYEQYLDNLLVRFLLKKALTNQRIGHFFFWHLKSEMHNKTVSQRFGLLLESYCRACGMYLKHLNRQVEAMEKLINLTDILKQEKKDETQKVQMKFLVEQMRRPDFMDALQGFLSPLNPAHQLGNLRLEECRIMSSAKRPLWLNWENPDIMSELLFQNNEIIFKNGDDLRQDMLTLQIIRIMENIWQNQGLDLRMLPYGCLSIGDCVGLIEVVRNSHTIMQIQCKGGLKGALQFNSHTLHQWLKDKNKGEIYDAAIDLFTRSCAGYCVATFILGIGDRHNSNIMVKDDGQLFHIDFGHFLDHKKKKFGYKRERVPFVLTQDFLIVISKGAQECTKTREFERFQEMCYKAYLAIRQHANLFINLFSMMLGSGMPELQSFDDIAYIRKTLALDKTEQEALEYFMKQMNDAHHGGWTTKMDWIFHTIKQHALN
pKi: −log10 of the molar value.
READOUT: pKi

A = CC(C)(O)c1nc2c(N3CCOCC3)nc(-c3cnc(N)nc3)nc2n1CCO
B = CCNC(=O)Nc1ccc(-c2nc(N3CCOC[C@@H]3C)c3nc(C(C)(C)O)n(CCO)c3n2)cc1
C = CCNC(=O)Nc1ccc(-c2nc(N3CCOC[C@@H]3C)c3ncn(CC)c3n2)cc1
Can you order these entries from above by pKi? Start with the largest number and work down. Reply with the labels, ordered as the question asks. A, B, C

---

target: Phosphatidylinositol 4,5-bisphosphate 3-kinase catalytic subunit alpha isoform (Homo sapiens, UniProt P42336); experiment: Displacement of TAMRA-PIP3 from PI3Kalpha GRP-1 pleckstrin homology domain (unknown origin) assessed as formation of 3,4,5-inositoltriphosphate after 30 mins by fluorescence polarization assay
READOUT: Ki (µM)

CCNC(=O)Nc1ccc(-c2nc(N3CCOC[C@@H]3CC)c3c(n2)c(C)nn3C)cc1	5.8

P = CCNC(=O)Nc1ccc(-c2nc(N3CCOC[C@@H]3C)c3ncn(C)c3n2)cc1
Q = CCNC(=O)Nc1ccc(-c2nc(N3CCOC[C@@H]3C)c3c(n2)nc(C(C)(C)O)n3C)cc1
R = CCNC(=O)Nc1ccc(-c2nc(N3CCOC[C@@H]3CC)c3c(cnn3C)n2)cc1
List the 3 entries from lowest Ki to highest Ki value. Reply with the labels, ordered as the question asks. P, R, Q
(P: 0.37 µM, R: 3.4 µM, Q: 7 µM)

Data origin, for the record: ChEMBL document CHEMBL2417437
